# System: CCRIS mutagenicity, Ames/micronucleus/aberration tests
# TEST METHOD NOTES: CCRIS mutagenicity studies
# TEST CONTEXT: Test System: AMES SALMONELLA TYPHIMURIUM; Strain/Indicator: TA98; Metabolic Activation: NONE; Method: STANDARD PLATE
Calls of active or inactive are those of the source. No rule for the calls is given here.
Allowed answers: label 1 for active, label 0 for inactive

These solved cases illustrate the format of a correct answer.
- CC(C)COP(=S)(OCC(C)C)SCCl: label 0
- [N-]=[N+]=NC[C@H]1O[C@H](O)[C@@H](O)[C@H](O)[C@@H]1O: label 0
- CN(C)N=O: label 0
- CC1CCC(C(C)C)C(OC(=O)c2ccccc2N)C1 (stereo not drawn): label 0
- c1cc2ccc3ccnc4ccc(c1)c2c34: label 1
- C\C=C(/C=C(C)/C=C(C)/C=C/C=C(\C)C(=O)[C@]12O[C@H]1[C@@](O)(CCO)NC2=O)C(=O)OC: label 0
- O=C(Nc1ccccc1Cl)c1csc([N+](=O)[O-])c1: label 1
- ON=C1CCCCC1: label 0

Would you mind telling me which call this test gave CC(=O)OCc1c2ccccc2cc2ccccc12 ?
label 1

What classification did C1CCC2OCCOCCOCCOCCOC3CCCCC3OCCOCCOCCOCCOC2C1 (stereo not drawn) end up with in this test?
label 0

Outcome logged for CCN(CC)CC#CC(C)(C)OC(=O)C(O)(c1ccccc1)C1CCCCC1 (stereo not drawn) in this assay:
label 0

Outcome logged for ONc1cccc2ccccc12 in this assay:
label 1

Returns: the outcome recorded for O=[N+]([O-])c1cc2[nH]c3cc([N+](=O)[O-])c4ccccc4c3c2c2ccccc12 in this assay.
label 1

# fetch the recorded call for Cc1c(/C=N/OCc2ccccc2)c2cc([N+](=O)[O-])ccc2n1Cc1cccc([N+](=O)[O-])c1 here
label 1
